assay: Epacadostat plasma pharmacokinetics, noncompartmental analysis; type: in vivo, human; details: human, plasma, oral, t ½, group G, 5-FU and platinum agent; steady state cycle 1/day 8; individual values (n ≤ 2)
Value Type: half-life

Query block: Bench note: what half-life did NS(=O)(=O)NCCNc1nonc1C(=NO)Nc1ccc(F)c(Br)c1 show?
Result block: 1.35 h

###

test: Epacadostat plasma pharmacokinetics, noncompartmental analysis; assay type: in vivo, human; conditions: human, plasma, oral, t max, group G, 5-FU and platinum agent, N=8; steady state cycle 1/day 8; median (range)
Value Type: Tmax (h)
One number for each entry, in h.

Query block: Bench note: what Tmax did NS(=O)(=O)NCCNc1nonc1C(=NO)Nc1ccc(F)c(Br)c1 [Epacadostat] show?
Result block: 3.1

###

assay: Epacadostat plasma pharmacokinetics, noncompartmental analysis; type: in vivo, human; conditions: human, plasma, oral, 100 mg twice daily, t ½, group B, nab-paclitaxel and gemcitabine; steady state cycle 1/day 8; individual value (n ≤ 2)
Value Type: half-life (h)
Numbers only, in h.

Query block: Bench note: what half-life did NS(=O)(=O)NCCNc1nonc1C(=NO)Nc1ccc(F)c(Br)c1 show?
Result block: 1.42

###

test: Epacadostat plasma pharmacokinetics, noncompartmental analysis; format: in vivo, human; conditions: human, plasma, oral, 100 mg twice daily, AUC0-τ, group B, nab-paclitaxel and gemcitabine; steady state cycle 1/day 8; individual value (n ≤ 2)
Value Type: AUC

Query block: Bench note: what AUC did NS(=O)(=O)NCCNc1nonc1C(=NO)Nc1ccc(F)c(Br)c1 show?
Result block: 2.76 µM·h

###

assay: Epacadostat plasma pharmacokinetics, noncompartmental analysis; type: in vivo, human; conditions: human, plasma, oral, 100 mg twice daily, AUC0-τ, group C, paclitaxel and carboplatin; steady state cycle 1/day 8; individual values (n ≤ 2)
Value Type: AUC (µM·h)
Numbers only, in µM·h.

Query block: Bench note: what AUC did NS(=O)(=O)NCCNc1nonc1C(=NO)Nc1ccc(F)c(Br)c1 show?
Result block: 3.24
